Cited source for all entries: paper PMC3433420

Target: T1, BCAR3 SH2 domain (human, UniProt O75815 154-253)
T1 construct: BCAR3, human; source: bacterial expression, purified
T1 sequence (looked up): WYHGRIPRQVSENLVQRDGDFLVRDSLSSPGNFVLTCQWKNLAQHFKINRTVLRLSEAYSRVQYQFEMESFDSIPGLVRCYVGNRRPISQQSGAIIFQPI
Assay: peptide or protein array; SH2/PTB proteins spotted on aldehyde slides, rhodamine peptide titrated in buffer B (20 mM HEPES, 100 mM KCl, 0.1% Tween-20, 5 mM DTT, pH 7.8), 1 h at room temperature; replicate assays
Settings: both partners purified
Non-standard residues stand in square brackets, D forms with d. No end group written: not given here. pY = N[C@@H](Cc1ccc(OP(=O)(O)O)cc1)C(=O)O; Rhodamine = not defined here

Binder	Kd / nM
Rhodamine-ETDG[pY]VAPLTCSD (reading uncertain) [ErbB2 pY1127 phosphopeptide, rhodamine-labelled, for protein microarrays]	726
